Molecular target: T1, DLG3_3, Q92796
T1 sequence (Q92796 374-475, limits assumed, looked up): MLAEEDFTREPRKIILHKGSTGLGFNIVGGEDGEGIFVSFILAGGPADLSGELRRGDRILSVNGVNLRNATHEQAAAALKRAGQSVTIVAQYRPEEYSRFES
Experiment: holdup assay
Parameters: key: below the threshold = too weak to quantify, mostly under pKd 3.1 to 4
Conditions: plain residues with an end cap or a label only (N-terminal biotin on a linker: ado-ado)
assay_endpoint: pKd

INSERT INTO results (binder, assay_endpoint, meas_value) VALUES
  ('LGRSTPQSEV [DGKH, Q86XP1]', 'pKd', 'below the threshold'),
  ('PDGQCTVTEV [RNF146, Q9NTX7]', 'pKd', 'below the threshold'),
  ('EVEEFPETSV [TRPV3, Q8NET8]', 'pKd', 4.54),
  ('NLSIEKETKL [ASNSD1, Q9NWL6]', 'pKd', 'below the threshold'),
  ('LPHGHSTTRV [NLGN4X, Q8N0W4]', 'pKd', 4.27),
  ('RRLPGKETMA [GRIK2, Q13002]', 'pKd', 'below the threshold'),
  ('NHSSSPETTA [TRMT13, Q9NUP7]', 'pKd', 'below the threshold'),
  ('SNAGNTATKA [NOSTRIN, Q8IVI9]', 'pKd', 'below the threshold'),
  ('PEYLGLDVPV [ERBB2, P04626]', 'pKd', 'below the threshold'),
  ('VYPNAKVELV [PDLIM4_iso2, P50479;P50479-1]', 'pKd', 'below the threshold'),
  ('AKPSRISTVV [IQSEC2, Q5JU85]', 'pKd', 4.18),
  ('LSEFKAMDSI [CTNNA1, P35221]', 'pKd', 'below the threshold'),
  ('ETQVTAETVI [TMEM225B, P0DP42]', 'pKd', 'below the threshold'),
  ('YLEPVLSSEL [ATP2A2, P16615;P16615-3]', 'pKd', 'below the threshold'),
  ('QSPANIYYKV [EFNB1, P52799]', 'pKd', 'below the threshold'),
  ('SKSNFGSEPL [KIF17, Q9P2E2]', 'pKd', 'below the threshold');
